# Test system: SF-268
# Protocol Details: NCI tumour cell line growth inhibition, 48 h
Activity calls are given as the source filed them. No stated cut-off is given here; in the data, active = GI50 up to about 1.1 µM and inactive = higher.
Listing of entries alongside the reported GI50.

Study these solved cases before continuing.
Record request: GI50 value, item CC(C)(C)N/N=C(\C(=O)Nc1cccc(Cl)c1)C1C(=O)Nc2ccccc2[S+]1[O-] (stereo not given) > 100 µM (inactive)

Record request: GI50 value, item C=C1C(=O)C23C(CC(OC(C)=O)C1[C@@H]2OC(C)=O)C1(C)C(OC(C)=O)CCC(C)(C)C1C[C@@H]3OC(C)=O (stereo not given in full) 1.56 µM (inactive)

Record request: GI50 value, item COc1cc2[nH]c(=O)[nH]c2c2c(C)c[nH]c12 > 100 µM (inactive)

Further cases:
Record request: GI50 value, item CC(C)c1ccc2c(c1)[C@@]1(C)CC[C@H](C)C(C)(C)C1CC2 (stereo not given in full) 19.1 µM (inactive)

Record request: GI50 value, item C#CCn1c(=O)c(C)cn(/C(=C/C(=O)OCC)C(=O)OCC)c1=O 12.4 µM (inactive)

Record request: GI50 value, item Cn1c(=O)c2nc(NCCO)cnc2n(C)c1=O > 100 µM (inactive)

Record request: GI50 value, item O=C(NC(C(F)(F)F)(C(F)(F)F)P(=O)(Cc1ccccc1)Cc1ccccc1)C(C(F)(F)F)C(F)(F)F 23.3 µM (inactive)

Record request: GI50 value, item Fc1ccc2c(c1)cc1ccc3cccc4ccc2c1c34 > 100 µM (inactive)

Record request: GI50 value, item C=C(C)CC(C)(c1cc2ccccc2n1C)N1CCOCC1 (stereo not given) 41.5 µM (inactive)

Record request: GI50 value, item O=C1CSC(c2cc3cc(Br)ccc3nc2Cl)N1c1ccc(F)c(Cl)c1 (stereo not given) 29.5 µM (inactive)
